Tested on: TYK2(JH2domain-pseudokinase)
Details: Compound Concentration (nM):1000;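 also: KINOMEscan scanMAX binding as percent activity remaining versus control; lower means stronger binding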
READOUT NAME: Percent Control (%)
Give bare numbers, in %.

Reference set (2 entries):
>>> df
                                   compound  unit_string  assay_value
0  COC(=O)Nc1nc2ccc(Oc3ccc(NC(=O)Nc4cc(C(F)(F)F)ccc4F)cc3)cc2s1.Cl [GW693917A]            %          100
1  COc1cc(N2CCN(C(C)C)CC2)ccc1Nc1nc(Nc2ccc(F)cc2C(=O)NC[C@@H](O)CO)c2cc[nH]c2n1 [GSK1392956A]            %          100

# per-item lookup of Percent Control; items listed below
1. NS(=O)(=O)c1ccc(N/N=C2\C(=O)Nc3ccc(-c4cnco4)cc32)cc1
2. Cl.O=S1CCN(Cc2ccc(-c3ccc4ncnc(Nc5ccc(OCc6ccccc6)c(F)c5)c4c3)o2)CC1 [GW576924A]
3. CCS(=O)(=O)c1ccc(OC)c(Nc2ncc(-c3cccc(F)c3)o2)c1 [GW621970X]

[37, 100, 100]

# per-item lookup of Percent Control; items listed below
1. Cl.O=C(O[C@H]1CN[C@H](C#Cc2cc3ncnc(Nc4ccc5c(cnn5Cc5ccccc5)c4)c3s2)C1)N1CCOCC1 [GSK200398A]
2. CCn1c(-c2nonc2N)nc2c(C#CC(C)(C)O)nc(OCCNC)cc21.Cl
3. COc1ccc2c(-c3ccnc(Nc4cccc(OC(F)(F)F)c4)n3)cnn2n1 [GW810372X]

1: 97; 2: 95; 3: 75

====

So I've got a bunch of molecules here, and I need their Percent Control values.
System: CDK4-cyclinD3
Details: Compound Concentration (nM):1000
# include the unit after the value

Reference set (3 entries):
In [3]: df
Out[3]:
                                   molecule     readout_name  assay_value
0  COC(=O)Nc1nc2ccc(Oc3ccc(NC(=O)Nc4cc(C(F)(F)F)ccc4F)cc3)cc2s1.Cl [GW693917A]  Percent Control          90%
1  C/C(Nc1ccc(S(N)(=O)=O)cc1)=C1/C(=O)Nc2ccccc21 [GW335962X]  Percent Control          64%
2  NS(=O)(=O)c1ccc(N/N=C2\C(=O)Nc3ccc(C(=O)NCCc4c[nH]cn4)cc32)cc1 [GW300660X]  Percent Control          30%

# per-item lookup of Percent Control; items listed below
1. COc1cc(C=NNc2ncnc3c2cnn3-c2ccccc2)ccc1O [GW513184X]
2. NS(=O)(=O)c1ccc(Nc2ncc(-c3ccccc3)o2)cc1 [GW572399X]
3. CC1=C(C(=O)Nc2ccc3[nH]ncc3c2)C(c2ccc3ccccc3c2)CC(=O)N1 (stereo not drawn) [GSK270822A]

1: 81%; 2: 88%; 3: 94%

# per-item lookup of Percent Control; items listed below
1. CC1=C(C(=O)Nc2ccc3[nH]ncc3c2)C(c2ccc(Cl)c(Cl)c2)CC(=O)N1 (stereo not drawn) [GSK299115A]
2. Cl.O=S1CCN(Cc2ccc(-c3ccc4ncnc(Nc5ccc(OCc6ccccc6)c(F)c5)c4c3)o2)CC1 [GW576924A]
3. O=C1Nc2ccc(C(=O)c3ccco3)cc2C1=Cc1cc(Cl)c(O)c(Cl)c1 [GW406108X]
4. COc1ccccc1-c1cc(/C=C2\C(=O)Nc3ncc(Br)cc32)cc(Br)c1O [GW442130X]
5. CN(C)CCNC(=O)Nc1ccc(N(C)c2ccnc(Nc3ccc(CS(C)(=O)=O)cc3)n2)cc1.Cl [GW830900A]
6. CCc1ccc(Oc2nccc(-c3c(-c4ccc(F)cc4)ncn3C3CCNCC3)n2)cc1
7. CCS(=O)(=O)c1ccc(OC)c(Nc2ncc(-c3cccc(F)c3)o2)c1 [GW621970X]
8. COc1ccc2[nH]c3c4[nH]c5ccc(OC)cc5c4c4c(c3c2c1)C(=O)NC4=O [GW296115X]

["100%", "100%", "94%", "95%", "100%", "76%", "100%", "74%"]

====

Test system: p38-alpha
Construct: gene MAPK14
Settings: Compound Concentration (nM):1000
So I've got a bunch of molecules here, and I need their Percent Control values.
One number for each entry, in %.

Reference set (2 entries):
>>> print(df.to_string())
                                   molecule  assay_value
0  CC(C)COC(=O)c1ccc2c(c1)/C(=C/Nc1ccc(S(N)(=O)=O)cc1)C(=O)N2 [GW416981X]          100
1  COc1cc(/C=N/Nc2ncnc3[nH]ncc23)ccc1O [GW578748X]          100

Please look at the following molecule next.
# input molecule: NS(=O)(=O)c1ccc(Nc2ncc(-c3ccccc3)o2)cc1 [GW572399X] ; wanted: its Percent Control
100

====

So I've got a bunch of compounds here, and I need their Percent Control values.
System: p38-alpha
Construct: gene MAPK14
Conditions: Compound Concentration (nM):1000
Answers are plain numbers, in %.

Reference set (3 entries):
                                   compound  tested_system     readout_name  unit_string  assay_value
0  COc1cc(C=NNc2ncnc3c2cnn3-c2ccccc2)ccc1O [GW513184X]      p38-alpha  Percent Control            %          100
1  Cl.O=C(Nc1ccc(Oc2ccc3[nH]c(NC(=O)c4ccco4)nc3c2)cc1)Nc1cc(C(F)(F)F)ccc1F [GW683134A]      p38-alpha  Percent Control            %           97
2  COc1cccc(-n2ncc3c(N/N=C/c4ccncc4)ncnc32)c1 [GW784752X]      p38-alpha  Percent Control            %          100

Please look at the following compound next.
# input compound: Cl.O=S1CCN(Cc2ccc(-c3ccc4ncnc(Nc5ccc(OCc6ccccc6)c(F)c5)c4c3)o2)CC1 [GW576924A] ; wanted: its Percent Control
100

====

Tested on: SRC
Settings: Compound Concentration (nM):1000
READOUT NAME: Percent Control (%)
Answers are plain numbers, in %.

                                   compound  tested_system  assay_value
0  C[C@@H](Oc1cc(-n2cnc3ccc(OC4CCN(C)CC4)cc32)sc1C(N)=O)c1ccccc1Cl [GSK579289A]            SRC          100
1  COC(=O)Nc1nc2ccc(Oc3ccc(NC(=O)Nc4cc(C(F)(F)F)ccc4F)cc3)cc2s1.Cl [GW693917A]            SRC           54
2  O=C(Nc1n[nH]c2nc(-c3ccc(O)cc3)c(Br)cc12)C1CC1 [SB-725317]            SRC          100
3  CCc1ccc(Oc2nccc(-c3c(-c4ccc(F)cc4)ncn3C3CCNCC3)n2)cc1 [SB-242719]            SRC          100
4  COc1cccc(-c2c[nH]c3c(N/N=C/c4ccncc4)ncnc23)c1 [GW814408X]            SRC           27
5  CCS(=O)(=O)c1ccc(OC)c(Nc2ncc(-c3cccc(OC)c3)o2)c1 [GW580509X]            SRC           26

# per-item lookup of Percent Control; items listed below
1. CC(C)COC(=O)c1ccc2c(c1)/C(=C/Nc1ccc(S(N)(=O)=O)cc1)C(=O)N2 [GW416981X]
2. C/C(Nc1ccc(S(N)(=O)=O)cc1)=C1/C(=O)Nc2ccccc21 [GW335962X]
3. COc1cc2ncnc(Nc3ccc4c(cnn4Cc4ccccc4)c3)c2cc1OC.Cl [GW282449A]
4. COc1ccc2c(-c3ccnc(Nc4cccc(OC(F)(F)F)c4)n3)cnn2n1 [GW810372X]
5. NS(=O)(=O)c1ccc(Nc2ncc(-c3ccccc3)o2)cc1 [GW572399X]
6. Nc1ncnc2occ(-c3ccc(NC(=O)Nc4cc(C(F)(F)F)ccc4F)cc3)c12 [GW770249X]
7. NS(=O)(=O)c1ccc(N/N=C2\C(=O)Nc3ccc(-c4cnco4)cc32)cc1 [GW276655]
8. COc1ccc(COc2ccc(Cc3cnc(N)nc3N)cc2OC)cc1 [GW632580X]

1: 100; 2: 100; 3: 100; 4: 100; 5: 100; 6: 92; 7: 83; 8: 88

# per-item lookup of Percent Control; items listed below
1. NS(=O)(=O)c1ccc(N/N=C2\C(=O)Nc3ccc(C(=O)NCCc4c[nH]cn4)cc32)cc1 [GW300660X]
2. COc1cc2ncn(-c3cc(O[C@H](C)c4ccccc4Cl)c(C(N)=O)s3)c2cc1OC [GSK237701A]
3. O=C1Nc2ccc(C(=O)c3ccco3)cc2C1=Cc1cc(Cl)c(O)c(Cl)c1 [GW406108X]
4. CC1=C(C(=O)Nc2ccc3[nH]ncc3c2)C(c2ccc3ccccc3c2)CC(=O)N1 (stereo not shown) [GSK270822A]
5. COc1ccc2cc(-c3c(-c4ccncc4)nc(-c4ccc(S(C)(=O)=O)cc4C)n3C)ccc2c1 [SB-633825]
6. COc1ccccc1-c1cc(/C=C2\C(=O)Nc3ncc(Br)cc32)cc(Br)c1O [GW442130X]

1. 100
2. 79
3. 100
4. 74
5. 82
6. 91

# per-item lookup of Percent Control; items listed below
1. CCS(=O)(=O)c1ccc(OC)c(Nc2ncc(-c3cccc(F)c3)o2)c1 [GW621970X]
2. COc1cc(C)c(N(C)C(=O)CN(C)C)cc1Nc1nc(Nc2cccc(F)c2C(N)=O)c2cc[nH]c2n1 [GSK2219385]

[19, 100]

# per-item lookup of Percent Control; items listed below
1. Cc1cc(O)cc(C)c1/C=C/c1cncc(C(N)=O)c1 [GW435821X]
2. NS(=O)(=O)c1ccc(N/N=C2\C(=O)Nc3ccc(Cl)cc32)cc1 [GW280670X]
3. NS(=O)(=O)c1ccc(N/N=C2\C(=O)Nc3ccc(C(=O)NCc4ccncc4)cc32)cc1 [GW300657X]

[57, 100, 100]

From: paper PMC7826789
